- assay.details: Insulinotropic activity in RIN5F cells assessed as stimulation of glucose-dependent insulin secretion per microgram of protein at 10 uM
- Type: functional, Rattus norvegicus
Below: a set of entries, each annotated with reported Activity.
Dear colleague, please return just the value in pg/h, with no unit written.

Examples with answers:
For `N=C(N)Nc1csc2ncccc12` the molecule record lists Activity as 14.1

Note to self: Activity recorded for `N=C(N)Nc1c[nH]c2ccc(Cl)cc12` was 15.5

`CCc1[nH]c2ncc(Cl)cc2c1NC(=N)N` has a reported Activity of 33.1

// field: Activity; key: `Cc1[nH]c2ncc(Cl)cc2c1NC(=N)N` ; value = 35.1

So for `Cc1[nH]c2ccccc2c1NC(=N)N` , the logged Activity turned out to be 30.1

Given item `Cc1sc2ncc(Cl)cc2c1NC(=N)N` , the value recorded as its Activity is 32.1

Others:
Note to self: Activity recorded for `CCc1[nH]c2ncccc2c1NC(=N)N` was 15

---

Measured Activity of individual entries
- assay.details: Insulinotropic activity in RIN5F cells assessed as stimulation of glucose-dependent insulin secretion per microgram of protein at 10 uM
- Type: functional, Rattus norvegicus
Just the number please, in pg/h, no unit attached.

Example entries begin here.
Memo: `CCc1[nH]c2ccc(Cl)cc2c1NC(=N)N` , reported Activity: 35.2

Lab note: `N=C(N)Nc1c(-c2ccccc2)[nH]c2ccccc12` gave Activity of 29.1

Next:
Activity recorded for this compound, `Cc1[nH]c2ccc(Cl)cc2c1NC(=N)N` , is 36

---

- assay.details: Insulinotropic activity in RIN5F cells assessed as stimulation of glucose-dependent insulin secretion per microgram of protein at 10 uM
- Assay type: functional, Rattus norvegicus
// 0 strictly below 20 pg/h in Activity; 1 otherwise

Answered examples (3):
Is Activity for `Cc1sc2ncccc2c1NC(=N)N` at or above 20 pg/h?
1

Could you please find out whether `N=C(N)Nc1c(C2CCCCC2)[nH]c2ncccc12` has Activity that meets 20 pg/h or exceeds it?
0

Exam item: decide whether the reported Activity for `N=C(N)Nc1c(C2CCCCC2)[nH]c2ccc(Cl)cc12` is at least 20 pg/h.
0

***
Textbook exercise: given the entry `CCc1[nH]c2ccccc2c1NC(=N)N` , state whether its Activity is greater than or equal to 20 pg/h.
0

Hello, I need to know if `N=C(N)Nc1c(-c2ccccc2)sc2ncc(Cl)cc12` has measured Activity not below 20 pg/h. Thanks!
1

Assess whether reported Activity for `N=C(N)Nc1csc2ncc(Cl)cc12` sits at 20 pg/h or higher.
0

Please check the record `N=C(N)Nc1c[nH]c2ccccc12` and state if its Activity is at or above 20 pg/h.
0

Has `N=C(N)Nc1c(C2CCCCC2)sc2ncccc12` a recorded Activity greater than or equal to 20 pg/h?
0

Say whether `N=C(N)Nc1c[nH]c2ncccc12` shows Activity of 20 pg/h or more.
0

Given the entry `N=C(N)Nc1c(Cc2ccccc2)[nH]c2ccc(Cl)cc12` , answer whether its Activity meets or surpasses 20 pg/h.
0

Given the entry `N=C(N)Nc1c(Cc2ccccc2)[nH]c2ccccc12` , answer whether its Activity meets or surpasses 20 pg/h.
0

Given the entry `N=C(N)Nc1c(-c2ccccc2)[nH]c2ncccc12` , answer whether its Activity meets or surpasses 20 pg/h.
1

I'd appreciate it if you could say whether `N=C(N)Nc1c(Cc2ccccc2)sc2ncc(Cl)cc12` has Activity at least equal to 20 pg/h.
0

Could you please find out whether `N=C(N)Nc1c(C2CCCCC2)[nH]c2ncc(Cl)cc12` has Activity that meets 20 pg/h or exceeds it?
0

# bool: Activity of `N=C(N)Nc1c(Cc2ccccc2)[nH]c2ncccc12` >= 20 pg/h
0

Check this compound for Activity at or above 20 pg/h: `Cc1[nH]c2ncccc2c1NC(=N)N`
1

// inclusive: Activity at least 20 pg/h? input: `Cc1[nH]c2ccc(Cl)cc2c1C1=NCCN1`
1

Where do these numbers come from? They come from ChEMBL document CHEMBL1147883.
